Entries and their koff
- Study target: T1, sIL-4Rα (soluble IL-4Rα) antigen protein (human, UniProt P24394 26-232)
- T1 construct: The ELISA and Octet assays used the bought protein (Sinobio 10402-H08H); also called CD124; sinobio 10402-H08H
- Measurement description: BLI (Octet QKe), antibody on AHC sensor, sIL-4Rα in solution, 1:1 model
Please respond with the number in s⁻¹ and leave the unit unwritten.

In the examples that follow, each entry is paired with its recorded koff.
Binder	Endpoint name	Val
4R.N6 (antibody, V domains shown, Converted from scFab to IgG1 and expressed in HEK293F) VH: EVQLLESGGGLVQPGGSLRLSCAASGFTFSRHAMAWVRQAPGKGLEWVSAITMSGRSIYYADSVKGRFTISRDNSKNTLYLQMNSLRAEDTAVYYCARVHRAFDYWGQGTLVTVSS VL: QSVLTQPPSASGTPGQRVTISCSGSPLFPDSGSFNWYQQLPGTAPKLLIYADSHRPSGVPDRFSGSKSGTSASLAISGLRSEDEADYYCGTWDYSLNSYVLGGGTKLTVLG	koff	0.000126
4R.N1 (antibody, V domains shown, Converted from scFab to IgG1 (pcDNA3.4 vector with IgG1 constant regions) and expressed in HEK293F) VH: EVQLLESGGGLVQPGGSLRLSCAASGFTFSRHAMAWVRQAPGKGLEWVSAITASGRSIYYADSVKGRFTISRDNSKNTLYLQMNSLRAEDTAVYYCARVHRAFDYWGQGTLVTVSS VL: QSVLTQPPSASGTPGQRVTISCSGSPLFPDSGSFNWYQQLPGTAPKLLIYADSHRPSGVPDRFSGSKSGTSASLAISGLRSEDEADYYCGTWDYSLNRYVLGGGTKLTVLG	koff	0.000338

Switching to the query record.
-- ask Using the record for 4R.N5 (antibody, V domains shown, Converted from scFab to IgG1 and expressed in HEK293F) VH: EVQLLESGGGLVQPGGSLRLSCAASGFTFSRHAMAWVRQAPGKGLEWVSAITASGMSIYYADFAKGRFTISRDNSKNTLYLQMNSLRAEDTAVYYCARVHRAFDYWGQGTLVTVSS VL: QSVLTQPPSASGTPGQRVTISCSGSPLFPDSGSFNWYQQLPGTAPKLLIYADSHRPSGVPDRFSGSKSGTSASLAISGLRSEDEADYYCGTWDYSLNRYVLGGGTKLTVLG , report its koff.
-- reply 0.00012
